Taken from patent US4929751A.

System: LOVO (colon)
Assay Protocol: growth inhibition of tumor cell line
Format: cell-based
Protocol Conditions: Homo sapiens, LoVo; read-out: IC-50 MEAN
Measurement Type: IC50 (µM)
// note: answer is a bare numeric in µM

Documented IC50 of C=CC(=O)C(O)(O)C(=O)OC(C)(C)C [t-butyl 2,3-dioxo-pent-4-enoate hydrate] : 96.6

----------
Test system: CCRF-CEM (leukemia)
Assay Protocol: growth inhibition of tumor cell line
Type: cell-based
Protocol Conditions: Homo sapiens, read-out: IC-50 MEAN
Measurement Type: IC50 (µM)
// note: answer is a bare numeric in µM

Documented IC50 of C=CC(=O)C(O)(O)C(=O)OC(C)(C)C [t-butyl 2,3-dioxo-pent-4-enoate hydrate] : 8.05
